# half-life per entry
# experimentNotes: in vivo
# runConditions: male, Sprague-Dawley, rat, po, 10 mg/kg
I only need the number, in h, no unit after it.

C[C@@H](NC(=O)N1CCC(F)(F)CC1)C(=O)N[C@H](Cc1ccccc1)C(=O)C(=O)NCc1ccccn1 = 2.8

Input line: So what's the measured half-life for this one? C[C@@H](NC(=O)[C@@H]1C[C@@H]2[C@H](C1)C2(F)F)C(=O)N[C@H](Cc1ccccc1)C(=O)C(=O)NCc1ccccn1
Output line: 2.46

Input line: So what's the measured half-life for this one? O=C(CC1CCC(F)(F)CC1)NCC(=O)N[C@H](Cc1ccccc1)C(=O)C(=O)NCc1ccccn1
Output line: 4.26

Input line: So what's the measured half-life for this one? O=C(CCC1CCC(F)(F)CC1)NCC(=O)N[C@H](Cc1ccccc1)C(=O)C(=O)NCc1ccccn1
Output line: 7.14

* * *

# target: recombinant SARS-CoV-2 M^pro (Severe acute respiratory syndrome coronavirus 2 (2019-nCoV) (SARS-CoV-2), UniProt P0DTD1)
# experimentNotes: Inhibition of SARS-CoV-2 M^pro enzyme activity (fluorescent substrate assay)
# Assay type: biochemical
# runConditions: inhibition of SARS-CoV-2 M^pro enzyme activity; values in nM; read-out: IC50
parameter: IC50

Worked set:
O=C(CNC(=O)[C@@H]1C[C@@H]2[C@H](C1)C2(F)F)N[C@H](Cc1ccccc1)C(=O)C(=O)NCc1nccs1 [Compound 389] = 110 nM
O=C(Cc1noc(-c2ccc(Cl)cc2F)n1)N[C@H](Cc1ccccc1)C(=O)C(=O)NCc1nccs1 [Compound 521] = 441 nM
O=C(CC1CC(F)(F)C1)NC1(C(=O)N[C@H](Cc2ccccc2)C(=O)C(=O)NCc2ccccn2)CCC1 [Compound 209] = 12.2 nM

Input line: So what's the measured IC50 for this one? O=C(NCc1ccccn1)C(=O)[C@@H](Cc1ccccc1)NC(=O)[C@H]1C[C@@H]2CCCC[C@@H]2N1C(=O)C1CCC(F)(F)CC1 [Compound 265]
Output line: 15.6 nM

* * *

# IC50 per entry
# target: recombinant SARS-CoV-2 M^pro (Severe acute respiratory syndrome coronavirus 2 (2019-nCoV) (SARS-CoV-2), UniProt P0DTD1)
# experimentNotes: Inhibition of SARS-CoV-2 M^pro enzyme activity (fluorescent substrate assay)
# Format: biochemical
# runConditions: inhibition of SARS-CoV-2 M^pro enzyme activity; values in nM; read-out: IC50
I only need the number, in nM, no unit after it.

CC(C)(OCc1ccc(Cl)cc1)C(=O)N[C@H](Cc1ccccc1)C(=O)C(=O)NCc1nccs1 = 33.3
C[C@@H](NC(=O)COc1ccc(Cl)c(Cl)c1)C(=O)N[C@H](Cc1ccccc1)C(=O)C(=O)NCc1ccccn1 = 10.9
O=C(NC1CCC(F)(F)CC1)NC1(C(=O)N[C@H](Cc2ccccc2)C(=O)C(=O)NCc2ccccn2)CC1 = 15.7

Now for a further compound.
Input line: So what's the measured IC50 for this one? O=C(Cn1cc(C2CCC(F)(F)CC2)c(C(F)(F)F)n1)N[C@H](Cc1ccccc1)C(=O)C(=O)NCc1nccs1
Output line: 137

* * *

# target: recombinant SARS-CoV-2 M^pro (Severe acute respiratory syndrome coronavirus 2 (2019-nCoV) (SARS-CoV-2), UniProt P0DTD1)
# experimentNotes: Inhibition of SARS-CoV-2 M^pro enzyme activity (fluorescent substrate assay)
# Assay type: biochemical
# runConditions: inhibition of SARS-CoV-2 M^pro enzyme activity; values in nM; read-out: IC50
parameter: log10(IC50) (log10 of the value in nM)
A difference of one corresponds to tenfold IC50; all values are log10 with IC50 in nM.

Worked set:
C[C@@H](NS(=O)(=O)c1ccc(F)cc1)C(=O)N[C@H](Cc1ccccc1)C(=O)C(=O)NCc1ccccn1 = 2.00
CC(C)(NC(=O)C(=O)c1ccccc1)C(=O)N[C@H](Cc1ccccc1)C(=O)C(=O)NCc1ccccn1 = 1.16
C[C@@H](NC(=O)C1CCCC(F)(F)C1)C(=O)N[C@H](Cc1ccccc1)C(=O)C(=O)NCc1nccs1 (stereo partly shown) = 1.14

Input line: So what's the measured log10(IC50) for this one? C[C@@H](NC(=O)COc1ccc(F)cc1)C(=O)N[C@H](Cc1ccccc1)C(=O)C(=O)NCc1ccccn1
Output line: 1.07

Input line: So what's the measured log10(IC50) for this one? O=C(NCc1cscn1)C(=O)[C@@H](Cc1ccccc1)NC(=O)[C@H]1COCCN1C(=O)C1CCC(F)(F)C1 (stereo partly shown)
Output line: 1.79

Input line: So what's the measured log10(IC50) for this one? O=C(NCc1ccccn1)C(=O)[C@@H](Cc1ccccc1)NC(=O)C1(NC(=O)C2CCCCCC2)CCC1
Output line: 1.49

Input line: So what's the measured log10(IC50) for this one? C[C@@H](NC(=O)COc1ccc(OC(F)(F)F)cc1)C(=O)N[C@H](Cc1ccccc1)C(=O)C(=O)NCc1ccccn1
Output line: 1.25

* * *

# experimentNotes: In vivo pharmacokinetic properties in rats
# runConditions: SD rats, p.o. 10 mg/kg
Binary label based on T1/2 with cut-off 6 h: below gives satisfied, not below gives not satisfied.

Record excerpt, results attached:
COC[C@@H](NC(=O)CC1CC(F)(F)C1)C(=O)N[C@H](Cc1ccccc1)C(=O)C(=O)NCc1nccs1 = satisfied
COC[C@@H](NC(=O)C1CCC(F)(F)CC1)C(=O)N[C@H](Cc1ccccc1)C(=O)C(=O)NCc1nccs1 = not satisfied
C[C@@H](NC(=O)C1CCC(F)(F)C1)C(=O)N[C@H](Cc1ccccc1)C(=O)C(=O)NCc1nccs1 (some centres unmarked) = satisfied

Input line: Quick check: does C[C@@H](NC(=O)C1CCC(F)(F)CC1)C(=O)N[C@H](Cc1ccccc1)C(=O)C(=O)NCc1nccs1 have T1/2 under 6 h?
Output line: satisfied

* * *

# experimentNotes: in vivo
# runConditions: male, Sprague-Dawley, rat, iv, 1 mg/kg
parameter: MRT inf (h)
I only need the number, in h, no unit after it.

C[C@@H](NC(=O)CC1CC(F)(F)C1)C(=O)N[C@H](Cc1ccccc1)C(=O)C(=O)NCc1nccs1 = 3.19
C[C@@H](NC(=O)[C@@H]1C[C@@H]2[C@H](C1)C2(F)F)C(=O)N[C@H](Cc1ccccc1)C(=O)C(=O)NCc1ccccn1 = 1.06
C[C@@H](NC(=O)C1CCC(F)(F)CC1)C(=O)N[C@H](Cc1ccccc1)C(=O)C(=O)NCc1ccccn1 = 1.09

Now for a further compound.
Input line: So what's the measured MRT inf for this one? COC[C@@H](NC(=O)C1CCC(F)(F)CC1)C(=O)N[C@H](Cc1ccccc1)C(=O)C(=O)NCc1nccs1
Output line: 3.55

* * *

# experimentNotes: In vivo pharmacokinetic properties in rats
# runConditions: SD rats, i.v. 1 mg/kg
# Cmax per entry
I only need the number, in ng/mL, no unit after it.

Worked set:
C[C@@H](NC(=O)C1CCC(F)(F)C1)C(=O)N[C@H](Cc1ccccc1)C(=O)C(=O)NCc1nccs1 (some centres unmarked) = 1317.59
C[C@@H](NC(=O)CC1CC(F)(F)C1)C(=O)N[C@H](Cc1ccccc1)C(=O)C(=O)NCc1nccs1 = 1568.34
COC[C@@H](NC(=O)C1CCC(F)(F)CC1)C(=O)N[C@H](Cc1ccccc1)C(=O)C(=O)NCc1nccs1 = 1697.71
C[C@@H](NC(=O)C1CCC(F)(F)CC1)C(=O)N[C@H](Cc1ccccc1)C(=O)C(=O)NCc1nccs1 = 1105.29

Now for a further compound.
Input line: So what's the measured Cmax for this one? COC[C@@H](NC(=O)CC1CC(F)(F)C1)C(=O)N[C@H](Cc1ccccc1)C(=O)C(=O)NCc1nccs1
Output line: 1352.62

* * *

# experimentNotes: in vivo
# runConditions: male, Sprague-Dawley, rat, po, 10 mg/kg
# Cmax per entry
Your reply should be a number followed by the unit it is expressed in.

Worked set:
O=C(NCc1ccccn1)C(=O)[C@@H](Cc1ccccc1)NC(=O)[C@H]1COCCN1C(=O)[C@H](NC(=O)c1cnccn1)C1CCCCC1 = 722 ng/mL
C[C@@H](NC(=O)N1CCC(F)(F)CC1)C(=O)N[C@H](Cc1ccccc1)C(=O)C(=O)NCc1ccccn1 = 1040 ng/mL
C[C@@H](NC(=O)[C@@H]1C[C@@H]2[C@H](C1)C2(F)F)C(=O)N[C@H](Cc1ccccc1)C(=O)C(=O)NCc1ccccn1 = 1560 ng/mL

Now for a further compound.
Input line: So what's the measured Cmax for this one? O=C(CCC1CCC(F)(F)CC1)NCC(=O)N[C@H](Cc1ccccc1)C(=O)C(=O)NCc1ccccn1
Output line: 1980 ng/mL

* * *

# experimentNotes: in vivo
# Type: in vivo, cynomolgus monkeys
# runConditions: male, cynomolgus monkey, in vivo, iv; cynomolgus monkeys, i.v. 1 mg/kg; read-out: MRTINF—obs
parameter: MRT inf
Your reply should be a number followed by the unit it is expressed in.

Input line: So what's the measured MRT inf for this one? COC[C@@H](NC(=O)C1CCCC(F)(F)C1)C(=O)N[C@H](Cc1ccccc1)C(=O)C(=O)NCc1nccs1 (stereo partly shown) [Compound 398]
Output line: 54 min
